pIC50: −log10 of the molar value. Counter-ions that a name gives are not always drawn.
Assay read-out pIC50; system under study: DYRK1A (Homo sapiens, UniProt Q13627).

Please review the following examples before continuing.
N[C@H]1CC[C@H](Nc2c([N+](=O)[O-])cnc3ccc(-c4c[nH]c5ncc(C(=O)NCc6cccnc6)cc45)cc23)CC1 [Example 59, hydrochloride]: 7.00 to 8.00
CNC(=O)c1cnc2[nH]cc(-c3ccc4nccc(N5CCOCC5)c4c3)c2c1: > 8.00
CNC(=O)c1cnc2[nH]cc(-c3ccc4nccc(-c5cccnc5)c4c3)c2c1: > 8.00
CNC(=O)c1cnc2[nH]cc(-c3ccc4ncc(NCc5cccc(Cl)c5)c(N5CCC[C@H](N)C5)c4c3)c2c1 [Example 55, hydrochloride]: 7.00 to 8.00
CNC(=O)c1cnc2[nH]cc(-c3cc(F)c4ncccc4c3)c2c1: > 8.00

// input: 3 compounds below; output: pIC50 for each
1. C=CCN(C)C(=O)c1cnc2[nH]cc(-c3cc(OC)c4ncccc4c3)c2c1
2. N[C@H]1CC[C@H](Nc2c(NCC3CCOCC3)cnc3ccc(-c4c[nH]c5ncc(C(=O)NCc6cccnc6)cc45)cc23)CC1 [Example 60, hydrochloride]
3. N[C@@H]1CCCN(c2ccnc3c(F)cc(-c4c[nH]c5ncc(CNCc6ccccc6)cc45)cc23)C1

Given back:
1. < 7.00
2. 7.00 to 8.00
3. > 8.00

// input: 4 compounds below; output: pIC50 for each
1. C=CCN(C)C(=O)c1cnc2[nH]cc(-c3ccc4nccc(Cl)c4c3)c2c1
2. c1cncc(-c2ccnc3ccc(-c4c[nH]c5ncccc45)cc23)c1
3. CNC(=O)c1cnc2[nH]cc(-c3ccc4ncc(NC(C)=O)c(N5CCOCC5)c4c3)c2c1
4. CNC(=O)c1cnc2[nH]cc(-c3cc(F)c4nccc(-c5cccnc5)c4c3)c2c1

Given back:
1: 7.00 to 8.00; 2: > 8.00; 3: > 8.00; 4: > 8.00

====

assayed-target: DYRK1B (Homo sapiens, UniProt Q9Y463)
Construct: purchased Carna Bioscence (Carna Biosciences) 04-131
Sequence (Q9Y463 whole entry): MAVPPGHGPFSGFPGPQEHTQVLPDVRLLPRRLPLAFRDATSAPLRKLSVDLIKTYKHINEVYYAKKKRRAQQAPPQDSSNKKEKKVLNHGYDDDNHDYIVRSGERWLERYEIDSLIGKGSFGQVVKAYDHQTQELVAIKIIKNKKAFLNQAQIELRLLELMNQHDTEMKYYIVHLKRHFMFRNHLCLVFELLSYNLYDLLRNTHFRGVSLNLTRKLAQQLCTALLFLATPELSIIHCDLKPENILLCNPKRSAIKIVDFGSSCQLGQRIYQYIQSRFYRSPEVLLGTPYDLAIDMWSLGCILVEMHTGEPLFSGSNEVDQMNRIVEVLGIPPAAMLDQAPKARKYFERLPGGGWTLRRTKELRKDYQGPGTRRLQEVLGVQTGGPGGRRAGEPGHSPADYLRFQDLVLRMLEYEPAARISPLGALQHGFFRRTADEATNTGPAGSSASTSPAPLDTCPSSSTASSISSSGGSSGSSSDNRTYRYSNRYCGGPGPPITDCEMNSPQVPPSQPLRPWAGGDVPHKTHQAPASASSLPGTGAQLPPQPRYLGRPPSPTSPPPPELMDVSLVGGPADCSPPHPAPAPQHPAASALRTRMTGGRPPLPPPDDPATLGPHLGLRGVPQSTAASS
assay-comment: DYRK1B in vitro kinase assay (ADP-Glo)
Format: biochemical
details: ADP-Glo assay, ATP 15 μM (Km), substrate 7 μM, enzyme 1 nM or 0.3 nM, 1 h, rt; read-out: DYRK1B IC50
Counter-ions that a name gives are not always drawn.
property-name: IC50

Please review the following examples before continuing.
c1cnc2ccc(-c3c[nH]c4ncccc34)cc2c1 [Example 2]: < 10 nM
N[C@H]1CCCN(c2ccnc3ccc(-c4c[nH]c5ncccc45)cc23)C1 [Example 3]: < 10 nM
CN1CCC(Nc2c(C#N)cnc3ccc(-c4c[nH]c5ncccc45)cc23)CC1 [Example 64]: 10 to 100 nM

// input: 5 compounds below; output: IC50 for each
1. CNC(=O)c1cnc2[nH]cc(-c3cc(C)c4nccc(-c5cccnc5)c4c3)c2c1 [Example 42]
2. CNC(=O)c1cnc2[nH]cc(-c3cc(F)c4nccc(N5CCC[C@H](N)C5)c4c3)c2c1 [Example 43, hydrochloride]
3. N[C@H]1CC[C@H](Nc2c(NCC3CCOCC3)cnc3ccc(-c4c[nH]c5ncc(C(=O)NCc6cccnc6)cc45)cc23)CC1 [Example 60, hydrochloride]
4. CNC(=O)c1cnc2[nH]cc(-c3cc(F)c4nccc(CCc5ccccc5)c4c3)c2c1 [Example 40]
5. N[C@@H]1CCCN(c2ccnc3c(F)cc(-c4c[nH]c5ncc(CNCc6ccccc6)cc45)cc23)C1 [Example 51]

Given back:
10 to 100 nM
< 10 nM
< 10 nM
< 10 nM
< 10 nM

// input: 2 compounds below; output: IC50 for each
1. c1cnc2[nH]cc(-c3ccc4ncc(NCc5ccoc5)cc4c3)c2c1 [Example 16]
2. Clc1cc(-c2c[nH]c3ncccc23)cc2cccnc12 [Example 11, hydrochloride]

Given back:
1: < 10 nM; 2: < 10 nM

====

Assay read-out IC50; system under study: DYRK1A (Homo sapiens, UniProt Q13627).
Where a name gives a salt, the structure may show the parent alone.

Please review the following examples before continuing.
C=CCN(C)C(=O)c1cnc2[nH]cc(-c3cc(F)c4ncccc4c3)c2c1 [Example 27]: < 10 nM
NCCCNC(=O)c1cnc2[nH]cc(-c3cc(F)c4ncccc4c3)c2c1 [Example 35, hydrochloride]: < 10 nM
C=CCN(C)C(=O)c1cnc2[nH]cc(-c3cc(F)c4nccc(-c5cccnc5)c4c3)c2c1 [Example 38]: 10 to 100 nM
C=CCCCc1ccnc2ccc(-c3c[nH]c4ncc(CN(C)CC=C)cc34)cc12 [Example 21]: 10 to 100 nM
CC(=O)Nc1cnc2[nH]cc(-c3cc(F)c4nccc(-c5cccnc5)c4c3)c2c1 [Example 46]: < 10 nM
c1cnc2[nH]cc(-c3ccc4ncc(NCc5ccoc5)cc4c3)c2c1 [Example 16]: < 10 nM

Kindly review the next compound as well.
Asked: Return IC50 (reported value) for this compound: CNC(=O)c1cnc2[nH]cc(-c3ccc4nccc(Cl)c4c3)c2c1 [Example 24]
Given back: < 10 nM

====

assayed-target: DYRK1B (Homo sapiens, UniProt Q9Y463)
Construct: purchased Carna Bioscence (Carna Biosciences) 04-131
assay-comment: DYRK1B in vitro kinase assay (ADP-Glo)
Format: biochemical
details: ADP-Glo assay, ATP 15 μM (Km), substrate 7 μM, enzyme 1 nM or 0.3 nM, 1 h, rt; read-out: DYRK1B IC50
Procedure: The compounds of the present invention were tested for their inhibitory activity against DYRK1A and DYRK1B kinases once or several times. […] 60 μL of Kinase Detection Solution was then added to each well of 96-well plate containing 60 μL of the solution to convert ADP to ATP and to allow the newly synthesized ATP to be measured using a luciferase/luciferin reaction (ratio of kinase reaction volume to ADP Glo™ Reagent volume to Kinase Detection Solution volume was maintained at 1:1:2). […]
Assignment: determine reported IC50 for the given compounds.

Please review the following examples before continuing.
COc1cc(-c2c[nH]c3ncccc23)cc2cccnc12: 10 to 100 nM
CNC(=O)c1cnc2[nH]cc(-c3ccc4ncc(NCc5cccc(Cl)c5)c(N5CCOCC5)c4c3)c2c1: < 10 nM
O=C(NCc1ccccc1)c1cnc2[nH]cc(-c3cc(F)c4ncccc4c3)c2c1: < 10 nM

// input: 2 compounds below; output: IC50 for each
1. CNC(=O)c1cnc2[nH]cc(-c3cc(OC)c4ncccc4c3)c2c1
2. CC(=O)Nc1cnc2ccc(-c3c[nH]c4ncc(C(=O)NCc5cccnc5)cc34)cc2c1

Given back:
1. 10 to 100 nM
2. < 10 nM
